Here the recorded Exch I (%) is given for each entry.
molecular target: T1, HLA-A*02:01 class I complex (conditional p*HLA*02:01, biotinylated heavy chain with beta2-microglobulin) (human, biotinylated heavy chain); assay: UV peptide exchange, HLA class I ELISA, % of Pos peptide;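 note: Streptavidin-captured HLA complexes after exchange detected via HRP anti-human B2M antibody, absorbance read, colour scales with intact complex, normalized to exchange control peptide as 100%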
T1 construct: UV-labile peptide p* is cleaved and exchanged for the test peptide; also called HLA 2.1
measurementLabel: Exch I (%)

• ILNREIDFV (also called M091) [PIK3CA_G118D5 mimic peptide ILNREIDFV] = 62.1%
• YMDCGIHSV (also called M023) [CTNNB1_S33C6 mimic peptide YMDCGIHSV] = 101%
• GLAPPQLLI (also called M140) [TP53.H193L mutant peptide GLAPPQLLI] = 9.2%
• LMVVGACGV (also called M062) [KRAS_G12C3 mimic peptide LMVVGACGV] = 47.1%
• YLDSGIHFG (also called M030) [CTNNB1.S37F mutant peptide YLDSGIHFG] = 53.7%
• CYMYYYSYLL (also called M104) [PTEN.R173C3 mimic peptide CYMYYYSYLL] = 8.3%
• CYLYYYSYLV (also called M102) [PTEN R173C6 mimic peptide CYLYYYSYLV] = 10.4%
• KMYPVQLWV (also called M132) [TP53_C141Y3 mimic peptide KMYPVQLWV] = 72.7%
• RMIHRDLAV (also called M243; ERBB2_V84216) [ERBB2_V842I6 mimic peptide RMIHRDLAV] = 56.7%
• CYLYYYSYLL (also called M101) [PTEN R173C2 mimic peptide CYLYYYSYLL] = 16.1%
• NMDEYVHNT (also called M110) [SF3B1.R625H mutant peptide NMDEYVHNT] = 9.2%
• MMFSKRHWV (also called M013) [CIC_R215W7 mimic peptide MMFSKRHWV] = 76.2%
• GLAPPQYLV (also called M151) [TP53_H193Y5 mimic peptide GLAPPQYLV] = 48.8%
• IMNREIDFV (also called M092) [PIK3CA_G118D6 mimic peptide IMNREIDFV] = 68.6%
• KLYPVQLWI (also called M134) [TP53.C141Y12 mimic peptide KLYPVQLWI] = 81.3%
• ALNNMFCQV (also called M161) [TP53_K132N5 mimic peptide ALNNMFCQV] = 69.7%
• YQGSYGFLV (also called M202) [TP53_R110L4 mimic peptide YQGSYGFLV] = 53.6%
• NLDEYVHNL (also called M114) [SF3B1.R625H10 mimic peptide NLDEYVHNL] = 57.2%
• CYLYYYSYLI (also called M105) [PTEN.R173C10 mimic peptide CYLYYYSYLI] = 27.8%
• CYMYYYSYLI (also called M106) [PTEN.R173C11 mimic peptide CYMYYYSYLI] = 4.9%
• LMVVGAVGV (also called M072) [KRAS_G12V3 mimic peptide LMVVGAVGV] = 39%
• LLGRNSFEI (also called M222) [TP53_V272M3 mimic peptide LLGRNSFEI] = 75.3%
• AMNNMFCQV (also called M162) [TP53_K132N6 mimic peptide AMNNMFCQV] = 69.4%
• MMFSKRHWI (also called M011) [CIC_R215W15 mimic peptide MMFSKRHWI] = 40.4%
• GLKDLLNPV (also called M081) [PIK3CA_E453K5 mimic peptide GLKDLLNPV] = 73.5%
• YLDCGIHSV (also called M022) [CTNNB1_S33C5 mimic peptide YLDCGIHSV] = 100%
• LLGRNSFEM (also called M220) [TP53.V272M mutant peptide LLGRNSFEM] = 58.8%
• YLDCGIHSL (also called M034) [CTNNB1.S33C9 mimic peptide YLDCGIHSL] = 103%
• LMVVGAAGV (also called M052) [KRAS_G12A3 mimic peptide LMVVGAAGV] = 51%
• RLIHRDLAA (also called M240) [ERBB2.V842I mutant peptide RLIHRDLAA] = 6.8%
• YMDSGIHFL (also called M035) [CTNNB1.S37F10 mimic peptide YMDSGIHFL] = 102%
• RMIHRDLAL (also called M241; ERBB2_V842110) [ERBB2_V842I10 mimic peptide RMIHRDLAL] = 51.5%
